assay: Solubility and stability of the free base and crystalline salts in water, SGF, FaSSIF and FeSSIF; format: physicochemical; conditions: FaSSIF (simulated intestinal fluid in fasted state), 37 °C, fassif, thermodynamic from solid, sample 10 mg/ml
MEASURE NAME: solubility at 24 h (µg/mL)
One number for each entry, in µg/mL.

Req: Using the record for [2H]C([2H])([2H])n1nc2c(c1C#N)-c1cnc(N)c(c1)O[C@H](C)c1cc(F)ccc1C(=O)N(C)C2 [compound A crystal form I] , report its solubility at 24 h.
Resp: 110

* * *

assay: Solubility and stability of the free base and crystalline salts in water, SGF, FaSSIF and FeSSIF; type: physicochemical; details: SGF (simulated gastric fluid), simulated gastric fluid, thermodynamic from solid, SGF (simulated gastric fluid); read-out: Solubility
MEASURE NAME: Solubility

Req: For the compound [2H]C([2H])([2H])n1nc2c(c1C#N)-c1cnc(N)c(c1)O[C@H](C)c1cc(F)ccc1C(=O)N(C)C2 [compound A crystal form I] , what Solubility is on record?
Resp: > 5000 µg/mL

* * *

test: Solubility and stability of the free base and crystalline salts in water, SGF, FaSSIF and FeSSIF; type: physicochemical; conditions: FaSSIF (simulated intestinal fluid in fasted state), 37 °C, fassif, thermodynamic from solid, sample 10 mg/ml
MEASURE NAME: solubility at 0.5 h (µg/mL)
Numbers only, in µg/mL.

Req: Can you share its solubility at 0.5 h? I mean this compound: [2H]C([2H])([2H])n1nc2c(c1C#N)-c1cnc(N)c(c1)O[C@H](C)c1cc(F)ccc1C(=O)N(C)C2 [compound A crystal form I]
Resp: 170

* * *

test: Solubility and stability of the free base and crystalline salts in water, SGF, FaSSIF and FeSSIF; type: physicochemical; details: FeSSIF (simulated intestinal fluid in fed state), 37 °C, fessif, thermodynamic from solid, sample 10 mg/ml
MEASURE NAME: solubility at 0.5 h (µg/mL)
Give bare numbers, in µg/mL.

Req: Which solubility at 0.5 h is reported for this compound? [2H]C([2H])([2H])n1nc2c(c1C#N)-c1cnc(N)c(c1)O[C@H](C)c1cc(F)ccc1C(=O)N(C)C2 [compound A crystal form I]
Resp: 550

* * *

experiment: Solubility and stability of the free base and crystalline salts in water, SGF, FaSSIF and FeSSIF; format: physicochemical; conditions: SGF (simulated gastric fluid), 37 °C, simulated gastric fluid, thermodynamic from solid, SGF, sample 10 mg/ml
MEASURE NAME: solubility at 0.5 h (mg/mL)
Numbers only, in mg/mL.

Req: Given the entry [2H]C([2H])([2H])n1nc2c(c1C#N)-c1cnc(N)c(c1)O[C@H](C)c1cc(F)ccc1C(=O)N(C)C2 [compound A crystal form I] , report its measured solubility at 0.5 h.
Resp: 10.9

* * *

assay: Solubility of the starting material (compound A crystal form I) in different solvents; type: physicochemical; settings: isopropyl acetate, organic solvent or mixture, thermodynamic from solid, Isopropyl acetate; read-out: Solubility
MEASURE NAME: Solubility

Req: # get_value(readout='Solubility', item= [2H]C([2H])([2H])n1nc2c(c1C#N)-c1cnc(N)c(c1)O[C@H](C)c1cc(F)ccc1C(=O)N(C)C2 [compound A crystal form I] )
Resp: ~20 mg/mL

* * *

assay: Solubility and stability of the free base and crystalline salts in water, SGF, FaSSIF and FeSSIF; assay type: physicochemical; conditions: water, thermodynamic from solid, H2O, room temperature, sample 5 mg/ml
MEASURE NAME: solubility at 24 h
Write your answer as a measured quantity: the number, then the unit.

Req: Recorded solubility at 24 h of [2H]C([2H])([2H])n1nc2c(c1C#N)-c1cnc(N)c(c1)O[C@H](C)c1cc(F)ccc1C(=O)N(C)C2 [compound A crystal form I] , please.
Resp: 95 µg/mL
